Entry source: paper doi:10.1101/2025.06.05.658000

- Tested Target: HLA-DR (DRA1*01:01 / DRB1*11:01), soluble knob-into-hole Fc heterodimer (human)
- Protocol Text: ELISA
No end group written: not given here.
Quantity Name: Kd (nM)

>>> endpoint_result("KPVSKMRMATPLLMQALPM (also: biotin-labeled) [biotin-labeled human Class II-associated Invariant Chain Peptide (Bio-CLIP)]")
12
